Reference source: PubChem BioAssay (NCI)

Listing of entries alongside the reported TGI.
Tested on: NCI-H226 lung
assay name: NCI tumour cell line growth inhibition, 48 h
State just the number; it will be interpreted in µM.

# compound, reading
records = [
    ("CC(=O)Oc1cc2c(c3ncccc13)OC(C)(C)C2", 33.1),
    ("CC=CCOc1cc(NC(=S)OC(C)C)ccc1Cl (mixture of isomers)", 33),
    ("O=S(=O)(SCc1ccccc1)C(c1ccccc1)c1ccccc1", 54.5),
    ("N#CC(C#N)N=Nc1ccc(Br)cc1", 27),
    ("O=Cc1ccc(-c2ccc(-c3nc4ccccc4o3)cc2)s1", 90.2),
]

Turning now to a further compound:
Identify the measured TGI of Cc1cc(O)c(C2=NN(c3ccc(S(N)(=O)=O)cc3)C(c3ccc(N(C)C)cc3)C2)c(C)c1Cl (stereo not given) for NCI-H226 lung.
29.4

* * *

Listing of entries alongside the reported TGI.
Tested on: SK-MEL-28 melanoma
assay name: NCI tumour cell line growth inhibition, 48 h

Some solved entries appear below for comparison.
# molecule, reading
data = [
    ("C[C@]12Cc3cnn(-c4ccc(F)cc4)c3NC1CC[C@@H]1C2CC[C@@]2(C)C1CC[C@@H]2O (some centres undefined)", "27.2 µM"),
    ("COc1ccc(C2Oc3cc(OC)c(O)c(C)c3[C@H]2C)cc1 (some centres undefined)", "> 100 µM"),
    ("COC1=CC23CCCN2CCc2cc4c(cc2C3C1O)OCO4 (centres undefined)", "> 100 µM"),
]

Please report the recorded TGI for `CC(C)(C)OC(=O)N(O)CCCn1cnc2c(N)ncnc21` .
> 100 µM

Please answer likewise for `CCOP(=O)(C/C=C/Cn1nc(Br)c(=O)[nH]c1=O)OCC`
> 100 µM

Please answer likewise for CC=CCOc1cc(NC(=S)OC(C)C)ccc1Cl (mixture of isomers)
33.7 µM

Please answer likewise for `CCn1cc(-c2ccnc3[nH]ccc23)c(-c2cccc(NC(=O)Nc3ccc(OCc4ccccc4)cc3)c2)n1`
> 25 µM

Please answer likewise for `NC(=O)NC(=O)c1cccc(CNc2ccc(C(=O)N[C@@H](CCC(=O)O)C(=O)O)cc2)n1`
> 100 µM

Please answer likewise for `O=C(Cc1csc(N=Nc2c(O)[nH]c3ccccc23)n1)Nc1ccccc1`
46.5 µM

Please answer likewise for `Cc1cc(-c2nc3ccccc3s2)ccc1N`
> 100 µM

Please answer likewise for `Cc1nccc2c3ccc(OCc4cn(-c5ccc(Cl)cc5)nn4)cc3n(CCCc3ccccc3)c12`
5.71 µM

Please answer likewise for `CN(C)CCSc1cccc(-c2cc(-c3cccc(SCCN(C)C)c3)nc(SCCN(C)C)n2)c1`
3.4 µM

* * *

Tested on: HS 578T breast
assay name: NCI tumour cell line growth inhibition, 48 h; in the data active means GI50 below about 0.43 µM; inactive means the rest
Assign a class; possible classes are active, inactive

Returns: the outcome recorded for `Clc1ccc(C2=Nn3c(nnc3-c3cc(Cl)cc(Cl)c3Cl)SC2)cc1` in this assay.
inactive

Please answer likewise for `C[C@@H]1Cc2c([nH]c3ccccc23)[C@@H](c2c(F)cc(NC3CN(CCCF)C3)cc2F)N1CC(F)(F)CO`
inactive

* * *

Tested on: SNB-75 CNS
assay name: NCI tumour cell line growth inhibition, 48 h
reported metric: TGI (µM)
State just the number; it will be interpreted in µM.

# compound, target under test, TGI / µM
data = [
    ("Nc1ccccc1NC(=O)c1ccc(CCCC(=O)Nc2ccc(C3CC3N)cc2)cc1 (stereo not given)", "SNB-75 CNS", 50.4),
    ("CS(=O)(=O)CCNCc1ccc(-c2ccc3ncnc(Nc4ccc(OCc5cccc(F)c5)c(C(F)(F)F)c4)c3c2)o1", "SNB-75 CNS", 7.77),
    ("CCN(CC)CCCn1c(=O)c2ccccc2n2c3c(=O)n(C)c(=O)n(C)c3nc12", "SNB-75 CNS", 18.6),
    ("Clc1ccc(C2=Nn3c(nnc3-c3cc(Cl)cc(Cl)c3Cl)SC2)cc1", "SNB-75 CNS", 34.2),
    ("S=C(Nc1ccc(Cl)cc1)Nc1ccc(-c2nc3ccccc3o2)cc1", "SNB-75 CNS", 72.2),
]

Turning now to a further compound:
Please report the recorded TGI for c1ccc(C2=NOC3(c4ccccc4)SC4CCCCC4CN23)cc1 (stereo not given) .
84.8

* * *

Listing of entries alongside the reported TGI.
Tested on: PC-3 prostate
assay name: NCI tumour cell line growth inhibition, 48 h

Some solved entries appear below for comparison.
# compound, target under test, reading
measured = [
    ("Cc1ccc([N+](=O)[O-])cc1S(=O)(=O)Nc1ccc(C2=NNC(c3ccccc3O)C2)cc1 (stereo unspecified)", "PC-3 prostate", "> 100 µM"),
    ("COC(=O)NC1(NC(=O)OC)NC(=O)c2cc(OC)c(OC)c(OC)c2N1", "PC-3 prostate", "72.3 µM"),
    ("Cc1nn(C(=O)c2ccncc2)c2c1C(c1ccccc1)SC(N)=N2 (stereo unspecified)", "PC-3 prostate", "> 10 µM"),
]

Turning now to a further compound:
Please report the recorded TGI for `O=[N+]([O-])c1ccc(/C=N/Nc2nnc3c4ccccc4c4ncccc4c3n2)o1` .
> 10 µM

* * *

Listing of entries alongside the reported TGI.
Test system: ACHN renal
assay name: NCI tumour cell line growth inhibition, 48 h
State just the number; it will be interpreted in µM.

# smiles record, TGI, µM
rows = [
    ("O=C(/C=C1\\C[C@H]2C=Nc3ccccc3C(=O)N2C1)NCCCCNC(=O)/C=C1\\C[C@H]2C=Nc3ccccc3C(=O)N2C1", 12.6),
]

Turning now to a further compound:
Please report the recorded TGI for `CN(C)c1ncc(-c2ccc(C(F)(F)F)cc2)c(NC2CCCCCC2)n1` .
31.2

* * *

Listing of entries alongside the reported TGI.
Test system: SW-620 colon
assay name: NCI tumour cell line growth inhibition, 48 h

Some solved entries appear below for comparison.
# molecule, reported metric, reading
rows = [
    ("CCN(CC)c1ccc2c(c1)Oc1nc(N)c(C#N)c(N)c1C2Sc1ccc(OC)cc1 (configuration not stated)", "TGI", "3.62 µM"),
    ("CC1(C)CC23CC(C)(C)c4cccc(c42)OCc2ccc4ccc5ccc(nc5c4n2)COc2cccc1c23", "TGI", "> 50 µM"),
    ("O=[N+]([O-])c1ccccc1NC1c2ccccc2Oc2ccccc21", "TGI", "> 100 µM"),
    ("S=C(Nc1ccc(Cl)cc1)Nc1ccc(-c2nc3ccccc3o2)cc1", "TGI", "60.3 µM"),
    ("CN1C(=O)[C@@H](NC(=O)[C@H](CCC(F)(F)F)[C@H](CCC(F)(F)F)C(N)=O)N=C(c2ccccc2)c2ccccc21", "TGI", "> 100 µM"),
]

Please report the recorded TGI for `O=C(C[n+]1ccccc1)N/N=C(\Cc1nc2ccc([N+](=O)[O-])cc2[nH]c1=O)C(=O)Nc1cc(Cl)c(Cl)cc1Cl` .
> 100 µM

Please answer likewise for O=C(CC1(O)C(=O)Nc2ccccc21)c1ccco1 (configuration not stated)
> 100 µM

Please answer likewise for C#CCN(N=O)C(=O)NC(CCCNC(=O)OCc1ccccc1)C(=O)OCc1ccccc1 (configuration not stated)
> 100 µM

Please answer likewise for `CS(=O)(=O)CCNCc1ccc(-c2ccc3ncnc(Nc4ccc(OCc5cccc(F)c5)c(C(F)(F)F)c4)c3c2)o1`
7.93 µM

Please answer likewise for CC(=O)N1c2ccccc2NC2=C(C(=O)N(Cc3ccccc3)C2(C)C)C1c1ccco1 (configuration not stated)
> 25 µM

* * *

Test system: RXF-631 renal
assay name: NCI tumour cell line growth inhibition, 48 h
Listing of entries alongside the reported TGI.

Some solved entries appear below for comparison.
# compound, target under test, TGI
records = [
    ("COc1ccc(Cc2cc3c(cc2OCC(=O)O)OCO3)cc1", "RXF-631 renal", "> 100 µM"),
    ("CC(C)(C)NC(=O)NC12CC3CC(CC(F)(C3)C1)C2", "RXF-631 renal", "> 100 µM"),
    ("O=C(O)/C(Cl)=C(\\Cl)C(=O)NC1C2CC3CC(C2)CC1C3 (stereo unspecified)", "RXF-631 renal", "> 100 µM"),
]

Identify the measured TGI of `Cc1ccccc1C(=O)Oc1ccc(O)cc1` for RXF-631 renal.
> 100 µM

Please answer likewise for `COc1cc(O)c2c(c1)C(=O)C=C(Cl)C2=O`
> 100 µM

Please answer likewise for `CN(CCc1ccccn1)c1nc(=[N+](C)C)ss1`
> 100 µM

* * *

System: T-47D breast
assay name: NCI tumour cell line growth inhibition, 48 h
reported metric: GI50

Some solved entries appear below for comparison.
# compound, target under test, GI50
measured = [
    ("Cc1cc(Nc2c3ccccc3nc3ccccc23)ccc1NS(C)(=O)=O", "T-47D breast", "5.51 µM"),
    ("OC(COc1ccc(F)cc1)Cn1cnc2c(Cl)ncnc21 (stereo not drawn)", "T-47D breast", "> 100 µM"),
    ("Nc1nc2cc3ccc(C4CC(O)C(CO)O4)cc3cc2c(=O)[nH]1 (stereo not drawn)", "T-47D breast", "> 100 µM"),
    ("S=C(Nc1ccc(Cl)cc1)Nc1ccc(-c2nc3ccccc3o2)cc1", "T-47D breast", "16.8 µM"),
    ("Clc1ccc(C2=Nn3c(nnc3-c3cc(Cl)cc(Cl)c3Cl)SC2)cc1", "T-47D breast", "> 100 µM"),
    ("CCN(CC)CCCC(C)Nc1nc(C)cc(Nc2ccc3nc(C)cc(N)c3c2)n1 (stereo not drawn)", "T-47D breast", "28.6 µM"),
]

Please report the recorded GI50 for `O=Cc1ccc(-c2ccc(-c3nc4ccccc4o3)cc2)s1` .
22.6 µM

Please answer likewise for `CCCCCCCCCc1cc[n+](CC(=O)c2ccc([N+](=O)[O-])cc2)cc1`
1.63 µM
